# target.entity: His-TRAF6_310-522 (TRAF6)
# assay: AlphaScreen PPI assay, TRAF6 binding to GST-LMP1/CD40/RANK proteins
# Parameters: species or system human
# stated.conditions: source data; One site -- Specific binding with Hill slope; concentrations c H-T6 in nM; read-out: Kd (best-fit value)
No end group written: not given here.
outcome.measure: Kd (nM)
Response body: numeric value in nM, unit text excluded.

IN: Quick one: give measured Kd for RANK: recombinant GST-RANK314-355 (GGGPYAQGEDARMLSLVSKTEIEEDSFRQMPTEDEYMDRPSQ; also: GST fusion left off, end not given here)
OUT: 7.74
